Record form. Attribute: log10(Kd). Fill in for each entry.
B1: NELF-E aptamer (parent)
chain: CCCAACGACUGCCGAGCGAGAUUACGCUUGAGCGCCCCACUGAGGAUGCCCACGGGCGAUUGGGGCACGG

- Variants of: B1
- measurement description: HiTS-RAP
- experimental parameters: with NELF-E (Drosophila)
In our notation, the value equals log10 of Kd in nM.

What the record says about G65U C66G : log10(Kd) is 0.70

What the record says about G16A U29G : log10(Kd) is 0.71

What the record says about G11A U41C : log10(Kd) is 1.92

What the record says about C13U C17U : log10(Kd) is 0.60

What the record says about C12G A24G : log10(Kd) is 0.77

What the record says about G11U G56A : log10(Kd) is 1.03

What the record says about C17U G54A : log10(Kd) is 1.06

What the record says about G11A U23G : log10(Kd) is 0.74

What the record says about U10G G65A : log10(Kd) is 0.68

What the record says about A21G U28C : log10(Kd) is 0.78

What the record says about G7U G56U : log10(Kd) is 0.89

What the record says about C9U G14A : log10(Kd) is 0.82

What the record says about C6G U47G : log10(Kd) is 0.84

What the record says about G11U U22G : log10(Kd) is 0.81

What the record says about C37U U41G : log10(Kd) is 1.21

What the record says about A4U C9G : log10(Kd) is 0.77

What the record says about C6G U41C : log10(Kd) is 1.81

What the record says about A5U A15G : log10(Kd) is 0.74

What the record says about C9G G16A : log10(Kd) is 0.76

What the record says about G14A G30A : log10(Kd) is 0.75

What the record says about C38U A39G : log10(Kd) is 0.80

What the record says about A8U G54A : log10(Kd) is 1.05

Every entry's value here was drawn from the RNAGym collection of RNA variant scans (doi:10.1038/nmeth.2970).
